// provenance: patent US20230322761A1

Assayed target: BTK (Homo sapiens)
Construct: endogenous in cells; host or cells: TMD-8 cells
Sequence (Q06187 whole entry): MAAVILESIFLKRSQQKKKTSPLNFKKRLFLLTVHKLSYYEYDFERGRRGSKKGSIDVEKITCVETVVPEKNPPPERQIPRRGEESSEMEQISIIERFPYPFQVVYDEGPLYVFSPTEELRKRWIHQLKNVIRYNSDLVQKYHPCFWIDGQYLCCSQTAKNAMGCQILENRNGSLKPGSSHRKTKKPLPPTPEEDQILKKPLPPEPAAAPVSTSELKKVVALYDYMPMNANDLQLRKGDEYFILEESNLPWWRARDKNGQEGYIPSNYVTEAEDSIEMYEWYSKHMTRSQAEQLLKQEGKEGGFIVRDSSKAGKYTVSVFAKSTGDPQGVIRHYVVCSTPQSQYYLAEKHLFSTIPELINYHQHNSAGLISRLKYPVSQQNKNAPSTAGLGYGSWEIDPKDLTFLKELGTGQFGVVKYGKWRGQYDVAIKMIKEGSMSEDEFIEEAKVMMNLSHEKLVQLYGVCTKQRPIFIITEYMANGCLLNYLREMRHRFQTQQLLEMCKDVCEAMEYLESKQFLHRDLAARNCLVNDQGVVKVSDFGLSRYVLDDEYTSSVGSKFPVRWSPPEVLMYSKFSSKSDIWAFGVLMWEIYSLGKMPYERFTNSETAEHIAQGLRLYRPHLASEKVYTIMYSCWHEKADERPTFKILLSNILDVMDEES
Measurement notes: BTK degradation in TMD-8 cells, HTRF assay after 6 h treatment
Format: cell-based
Conditions used: IC50 (DC50) of BTK degradation
Endpoint: DC50 (nM)

compound=Cc1cc(-c2n[nH]c3ncc(-c4ccc(N5CCN(CCc6ccc(N7CCC(=O)NC7=O)cn6)CC5)cc4)cc23)ccc1[C@@H](C)NC(=O)c1noc(C(C)(C)C)n1 endpoint=DC50 result_value=1.69
compound=Cc1cc(-c2n[nH]c3ncc(-c4ccc(C5CCN(CC6CCN(c7ccc(N8CCC(=O)NC8=O)c(C)c7)CC6)CC5)nc4)cc23)ccc1CNC(=O)c1nc(C(C)(C)C)no1 endpoint=DC50 result_value=3.55
compound="Cc1cc(CCN2CCN(c3ccc(-c4cnc5[nH]nc(-c6ccc([C@@H](C)NC(=O)c7nc(C(C)(C)C)no7)c(C)c6)c5c4)cc3)CC2)ncc1C1CCC(=O)NC1=O (stereo partly shown)" endpoint=DC50 result_value=3.27
compound="Cc1cc(-c2n[nH]c3ncc(-c4ccc(CCN5CCC(c6ccc(C7CCC(=O)NC7=O)cc6)CC5)cc4)cc23)ccc1CNC(=O)c1noc(C(C)(C)C)n1 (stereo not shown)" endpoint=DC50 result_value=1.4

P = Cc1c(-c2n[nH]c3ncc(-c4ccc(C5CCN(CCc6ccc(C7CCC(=O)NC7=O)cc6)CC5)cc4)cc23)ccc(CNC(=O)c2nc(C(C)(C)C)no2)c1F (stereo not shown)
Q = Cc1cc(-c2n[nH]c3ncc(-c4ccc(N5CCN(CCC6CCN(c7ccc([C@H]8CCC(=O)NC8=O)cc7)CC6)CC5)cc4)cc23)ccc1CNC(=O)c1noc(C(C)(C)C)n1
Would you kindly point out which of P and Q has the smaller DC50 figure? # respond with the chosen item's label
Q
